- Study System: hT1R1/hT1R3 umami receptor (Homo sapiens, UniProt Q7RTX0+Q7RTX1)
- Construct: expressed in transfected cells; host or cells: HEK293 derivative stably expressing Gα15, clone I-17, expression induced with mifepristone
- Sequence (Q7RTX1 21-841): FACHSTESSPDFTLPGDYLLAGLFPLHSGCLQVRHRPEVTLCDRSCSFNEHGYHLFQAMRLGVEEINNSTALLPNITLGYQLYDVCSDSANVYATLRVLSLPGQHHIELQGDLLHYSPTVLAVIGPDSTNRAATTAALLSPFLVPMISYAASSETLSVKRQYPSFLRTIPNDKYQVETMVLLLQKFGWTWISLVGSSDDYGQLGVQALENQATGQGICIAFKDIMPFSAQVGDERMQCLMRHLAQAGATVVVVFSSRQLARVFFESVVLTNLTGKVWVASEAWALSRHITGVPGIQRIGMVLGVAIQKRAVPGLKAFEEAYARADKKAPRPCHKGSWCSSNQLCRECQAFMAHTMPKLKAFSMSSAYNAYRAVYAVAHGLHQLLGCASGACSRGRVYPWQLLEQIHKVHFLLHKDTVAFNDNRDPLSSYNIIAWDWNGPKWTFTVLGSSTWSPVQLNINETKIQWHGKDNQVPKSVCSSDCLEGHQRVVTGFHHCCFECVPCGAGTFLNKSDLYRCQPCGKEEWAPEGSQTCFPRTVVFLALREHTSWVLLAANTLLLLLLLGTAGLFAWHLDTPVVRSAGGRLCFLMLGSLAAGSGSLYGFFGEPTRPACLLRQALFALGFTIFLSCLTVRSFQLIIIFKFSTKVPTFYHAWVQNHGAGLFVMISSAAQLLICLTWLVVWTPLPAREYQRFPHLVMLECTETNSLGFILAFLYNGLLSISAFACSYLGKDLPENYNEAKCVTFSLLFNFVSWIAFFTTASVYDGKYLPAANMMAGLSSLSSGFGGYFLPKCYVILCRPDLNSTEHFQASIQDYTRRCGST
- Sequence (Q7RTX0 21-852): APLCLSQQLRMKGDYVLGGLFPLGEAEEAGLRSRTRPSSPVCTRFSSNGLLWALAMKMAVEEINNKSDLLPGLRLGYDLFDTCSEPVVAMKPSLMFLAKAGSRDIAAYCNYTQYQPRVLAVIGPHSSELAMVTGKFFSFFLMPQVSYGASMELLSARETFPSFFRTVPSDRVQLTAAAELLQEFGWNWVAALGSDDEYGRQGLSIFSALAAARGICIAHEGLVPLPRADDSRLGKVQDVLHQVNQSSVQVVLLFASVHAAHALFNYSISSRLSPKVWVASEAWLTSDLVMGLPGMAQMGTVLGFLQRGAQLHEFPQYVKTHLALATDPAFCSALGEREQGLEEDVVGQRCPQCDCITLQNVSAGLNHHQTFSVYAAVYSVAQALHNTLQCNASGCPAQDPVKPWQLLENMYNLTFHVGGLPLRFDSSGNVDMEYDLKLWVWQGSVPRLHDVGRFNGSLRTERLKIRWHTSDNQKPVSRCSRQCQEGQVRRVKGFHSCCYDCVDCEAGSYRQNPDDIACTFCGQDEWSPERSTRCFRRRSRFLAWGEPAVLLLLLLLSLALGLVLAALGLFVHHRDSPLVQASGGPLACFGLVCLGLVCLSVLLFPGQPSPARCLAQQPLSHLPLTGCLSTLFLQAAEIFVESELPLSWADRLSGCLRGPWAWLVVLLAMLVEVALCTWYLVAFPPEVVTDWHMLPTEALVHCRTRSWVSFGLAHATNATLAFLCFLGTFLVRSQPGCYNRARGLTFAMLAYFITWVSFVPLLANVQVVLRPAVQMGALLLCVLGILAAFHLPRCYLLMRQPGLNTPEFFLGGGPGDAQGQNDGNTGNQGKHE
- Run Description: Umami taste enhancement activity assay (EC50 ratio vs. MSG)
- Assay type: cell-based
- Assay Context: compound present at 0.3 μM
Quantity Name: EC50 ratio (enhanced the effectiveness of monosodium glutamate)

Below are worked cases with known answers.
INSERT INTO results (compound, quantitative_result) VALUES
  ('O=C(NC1CCc2ccccc21)c1ccc2c(c1)OCO2 (centres unmarked)', 5.33),
  ('COc1ccccc1CNC(=O)C(=O)NCCc1ccccn1', 18.85),
  ('Cc1cc(C(=O)NC(C)CCc2ccccc2)ccc1O (centres unmarked)', 7);

A = COc1ccc(C(=O)N[C@H](C)c2ccccc2)cc1Cl
B = CCC(CC)NC(=O)c1ccc(OC)c(Cl)c1
Prompt: Of A and B , which one carries the higher reported EC50 ratio (enhanced the effectiveness of monosodium glutamate)? Bench note: the answer is the label of the chosen record.
Completion: B
